Biological target: UniProtKB P11388
Assay: DNA Topo II inhibition (kDNA decatenation) assay
Type: biochemical
Conditions: conc 10 (μM)
property label: %inh TOPO II (%)

CCOC(=O)C1=C(C)N=C2SC=C(NC(=O)c3c(Cl)cc(Cl)cc3Cl)N2C1c1ccc(OC)cc1OC (stereo not drawn)	79
CCOC(=O)C1=C(C)N=c2sc(=Cc3ccc(OC)cc3)c(=O)n2C1c1ccc(OC)cc1OC (stereo not drawn)	48
CCOC(=O)C1=C(C)N=C2SC=C(NC(=O)Nc3ccc(Cl)c(C(F)(F)F)c3)N2C1c1ccc(OC)cc1OC (stereo not drawn)	71
CCOC(=O)C1=C(C)N=C2SC=C(NC(=O)CN3CCN(CC)CC3)N2C1c1ccc(OC)cc1OC (stereo not drawn)	67
CCOC(=O)C1=C(C)N=C2SC=C(NC(=O)Nc3ccc(Cl)cc3)N2C1c1ccc(OC)cc1OC (stereo not drawn)	57
CCOC(=O)C1=C(C)N=C2SC=C(NC(=O)CN3CCOCC3)N2C1c1ccc(OC)cc1OC (stereo not drawn)	67
CCOC(=O)C1=C(C)N=c2sc(=Cc3cc(OC)c(OC)c(OC)c3)c(=O)n2C1c1ccc(OC)cc1OC (stereo not drawn)	59
CCOC(=O)C1=C(C)N=c2sc(=Cc3ccc(OC)cc3OC)c(=O)n2C1c1ccc(OC)cc1OC (stereo not drawn)	63
COc1cccc2c1C(=O)c1c(O)c3c(c(O)c1C2=O)C[C@@](O)(C(=O)CO)C[C@@H]3O[C@H]1C[C@H](N)[C@H](O)[C@H](C)O1 [Doxorubicin, reference compound]	77

* * *

Tested on: A498 renal cell carcinoma cell line
Experiment: MTT cytotoxicity assay, A498
Conditions: Homo sapiens, A498, 24 h, read-out: Cytotoxicity IC50 A498± SD, MTT, A498, 24 h treatment, mean ± SD of two independent assays
property label: pIC50
In textbook form, pIC50 equals minus log to base ten of the concentration in mol/L.

CCOC(=O)C1=C(C)N=c2sc(=Cc3cc(OC)c(OC)c(OC)c3)c(=O)n2C1c1ccc(OC)cc1OC (stereo not drawn)	8.40

Now look at this entry.
query: Give pIC50 (A498 renal cell carcinoma cell line) of the following compound: CCOC(=O)C1=C(C)N=C2SC=C(NC(=O)c3c(Cl)cc(Cl)cc3Cl)N2C1c1ccc(OC)cc1OC (stereo not drawn)
result: 9.00

* * *

Tested on: A549 non-small cell lung cancer (NSCLC) cell line
Test: MTT cytotoxicity assay, A549
Settings: Homo sapiens, A549, 24 h, read-out: Cytotoxicity IC50 A549± SD, MTT, A549, 24 h treatment, mean ± SD of two independent assays
property label: pIC50
In textbook form, pIC50 equals minus log to base ten of the concentration in mol/L.

query: Can you look up the measured pIC50 of CCOC(=O)C1=C(C)N=C2SC=C(NC(=O)CN3CCN(CC)CC3)N2C1c1ccc(OC)cc1OC (stereo not drawn) for me?
result: 8.10

query: Can you look up the measured pIC50 of CCOC(=O)C1=C(C)N=c2sc(=Cc3ccc(OC)cc3)c(=O)n2C1c1ccc(OC)cc1OC (stereo not drawn) for me?
result: 7.62

query: Can you look up the measured pIC50 of CCOC(=O)C1=C(C)N=C2SC=C(N)N2C1c1ccc(OC)cc1OC (stereo not drawn) for me?
result: 7.64

query: Can you look up the measured pIC50 of CCOC(=O)C1=C(C)N=C2SCC(=O)N2C1c1ccc(OC)cc1OC (stereo not drawn) for me?
result: 7.03

query: Can you look up the measured pIC50 of CCOC(=O)C1=C(C)N=C2SC=C(NC(=O)c3c(Cl)cc(Cl)cc3Cl)N2C1c1ccc(OC)cc1OC (stereo not drawn) for me?
result: 8.70

query: Can you look up the measured pIC50 of CCOC(=O)C1=C(C)N=C2SC=C(NC(=O)CN3CCOCC3)N2C1c1ccc(OC)cc1OC (stereo not drawn) for me?
result: 8.22

query: Can you look up the measured pIC50 of CCOC(=O)C1=C(C)N=c2sc(=Cc3cc(OC)c(OC)c(OC)c3)c(=O)n2C1c1ccc(OC)cc1OC (stereo not drawn) for me?
result: 7.92

query: Can you look up the measured pIC50 of CCOC(=O)C1=C(C)N=C2SC=C(NC(=O)Nc3ccc(Cl)c(C(F)(F)F)c3)N2C1c1ccc(OC)cc1OC (stereo not drawn) for me?
result: 7.72

query: Can you look up the measured pIC50 of CCOC(=O)C1=C(C)N=c2sc(=Cc3ccc(OC)cc3OC)c(=O)n2C1c1ccc(OC)cc1OC (stereo not drawn) for me?
result: 7.72

* * *

Molecular target: human topoisomerase II (Homo sapiens)
Sequence (P11388 whole entry): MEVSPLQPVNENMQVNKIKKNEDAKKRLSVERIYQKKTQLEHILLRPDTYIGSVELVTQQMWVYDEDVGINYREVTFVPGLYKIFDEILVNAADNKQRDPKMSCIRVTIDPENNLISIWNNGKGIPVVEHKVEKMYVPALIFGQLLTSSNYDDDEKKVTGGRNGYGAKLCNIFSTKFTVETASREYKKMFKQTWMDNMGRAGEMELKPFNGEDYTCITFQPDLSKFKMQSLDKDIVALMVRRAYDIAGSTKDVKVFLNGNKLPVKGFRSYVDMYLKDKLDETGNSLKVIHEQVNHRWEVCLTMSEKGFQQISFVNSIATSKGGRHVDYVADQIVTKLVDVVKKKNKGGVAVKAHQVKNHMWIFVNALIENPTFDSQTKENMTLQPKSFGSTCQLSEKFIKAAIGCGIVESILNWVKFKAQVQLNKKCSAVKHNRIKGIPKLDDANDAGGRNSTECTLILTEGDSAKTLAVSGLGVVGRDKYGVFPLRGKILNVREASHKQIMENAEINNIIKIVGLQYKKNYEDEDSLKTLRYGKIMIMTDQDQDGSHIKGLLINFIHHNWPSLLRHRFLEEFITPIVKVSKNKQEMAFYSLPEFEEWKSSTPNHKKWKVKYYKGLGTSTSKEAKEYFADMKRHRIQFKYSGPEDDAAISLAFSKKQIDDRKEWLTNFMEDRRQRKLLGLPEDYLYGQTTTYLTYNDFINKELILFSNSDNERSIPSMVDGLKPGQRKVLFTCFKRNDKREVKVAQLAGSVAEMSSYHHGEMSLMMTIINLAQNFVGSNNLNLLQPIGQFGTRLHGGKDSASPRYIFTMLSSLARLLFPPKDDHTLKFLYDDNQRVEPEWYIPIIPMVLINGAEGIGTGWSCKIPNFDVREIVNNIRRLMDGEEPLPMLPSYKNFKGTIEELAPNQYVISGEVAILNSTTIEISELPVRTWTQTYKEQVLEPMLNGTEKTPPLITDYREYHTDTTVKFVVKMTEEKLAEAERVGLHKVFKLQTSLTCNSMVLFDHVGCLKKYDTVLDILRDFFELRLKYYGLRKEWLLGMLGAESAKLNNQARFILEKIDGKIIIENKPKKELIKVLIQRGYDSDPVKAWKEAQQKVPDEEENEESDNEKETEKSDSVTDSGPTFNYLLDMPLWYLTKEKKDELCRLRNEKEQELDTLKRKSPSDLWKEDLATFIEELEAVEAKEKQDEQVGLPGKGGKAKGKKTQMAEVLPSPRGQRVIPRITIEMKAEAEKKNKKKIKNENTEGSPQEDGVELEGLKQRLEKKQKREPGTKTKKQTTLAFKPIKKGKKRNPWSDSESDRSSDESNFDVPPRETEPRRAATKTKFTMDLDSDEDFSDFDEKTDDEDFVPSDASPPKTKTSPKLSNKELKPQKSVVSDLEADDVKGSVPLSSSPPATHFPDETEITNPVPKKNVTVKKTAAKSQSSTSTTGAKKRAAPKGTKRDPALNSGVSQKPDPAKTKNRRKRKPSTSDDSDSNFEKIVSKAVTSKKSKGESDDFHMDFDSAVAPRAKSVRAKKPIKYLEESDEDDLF
property label: IC50 (nM)

Reference set (3 entries):
CCOC(=O)C1=C(C)N=C2SC=C(NC(=O)c3c(Cl)cc(Cl)cc3Cl)N2C1c1ccc(OC)cc1OC (centres unmarked) [Compound 4c]	230
CCOC(=O)C1=C(C)N=C2SC=C(NC(=O)CN3CCOCC3)N2C1c1ccc(OC)cc1OC (centres unmarked) [Compound 6b]	1510
CCOC(=O)C1=C(C)N=c2sc(=Cc3ccc(OC)cc3OC)c(=O)n2C1c1ccc(OC)cc1OC (centres unmarked) [Compound 3c]	1390

P = CCOC(=O)C1=C(C)N=C2SC=C(NC(=O)Nc3ccc(Cl)c(C(F)(F)F)c3)N2C1c1ccc(OC)cc1OC (centres unmarked) [Compound 7b]
Q = CCOC(=O)C1=C(C)N=c2sc(=Cc3ccc(OC)cc3)c(=O)n2C1c1ccc(OC)cc1OC (centres unmarked) [Compound 3b]
query: Which value of IC50 is smaller, the one for P or the one for Q ? State the label of the item chosen.
result: P
(P: 1050 nM, Q: 6140 nM)

* * *

Molecular target: UniProt:P11388
Assay: DNA Topo II inhibition (kDNA decatenation) assay
Assay type: biochemical
Details: conc 100 (μM)
property label: %inh TOPO II (%)

CCOC(=O)C1=C(C)N=C2SC=C(NC(=O)CN3CCN(CC)CC3)N2C1c1ccc(OC)cc1OC (stereo not drawn)	83
CCOC(=O)C1=C(C)N=C2SC=C(NC(=O)Nc3ccc(Cl)cc3)N2C1c1ccc(OC)cc1OC (stereo not drawn)	84
CCOC(=O)C1=C(C)N=c2sc(=Cc3ccc(OC)cc3)c(=O)n2C1c1ccc(OC)cc1OC (stereo not drawn)	80
CCOC(=O)C1=C(C)N=C2SC=C(NC(=O)c3c(Cl)cc(Cl)cc3Cl)N2C1c1ccc(OC)cc1OC (stereo not drawn)	92
COc1cccc2c1C(=O)c1c(O)c3c(c(O)c1C2=O)C[C@@](O)(C(=O)CO)C[C@@H]3O[C@H]1C[C@H](N)[C@H](O)[C@H](C)O1 [Doxorubicin, reference compound]	90
CCOC(=O)C1=C(C)N=c2sc(=Cc3cc(OC)c(OC)c(OC)c3)c(=O)n2C1c1ccc(OC)cc1OC (stereo not drawn)	85
CCOC(=O)C1=C(C)N=C2SC=C(NC(=O)CN3CCOCC3)N2C1c1ccc(OC)cc1OC (stereo not drawn)	88
CCOC(=O)C1=C(C)N=c2sc(=Cc3ccc(OC)cc3OC)c(=O)n2C1c1ccc(OC)cc1OC (stereo not drawn)	89
CCOC(=O)C1=C(C)N=C2SC=C(NC(=O)Nc3ccc(Cl)c(C(F)(F)F)c3)N2C1c1ccc(OC)cc1OC (stereo not drawn)	88

* * *

Target: human topoisomerase II (Homo sapiens)
Assay: DNA Topo II inhibition (kDNA decatenation) assay
Format: biochemical
Details: conc 0.1 (μM)
property label: %inh TOPO II (%)

Reference set (2 entries):
CCOC(=O)C1=C(C)N=c2sc(=Cc3ccc(OC)cc3)c(=O)n2C1c1ccc(OC)cc1OC (stereo not drawn)	19
COc1cccc2c1C(=O)c1c(O)c3c(c(O)c1C2=O)C[C@@](O)(C(=O)CO)C[C@@H]3O[C@H]1C[C@H](N)[C@H](O)[C@H](C)O1 [Doxorubicin, reference compound]	30

1 = CCOC(=O)C1=C(C)N=C2SC=C(NC(=O)Nc3ccc(Cl)cc3)N2C1c1ccc(OC)cc1OC (stereo not drawn)
2 = CCOC(=O)C1=C(C)N=C2SC=C(NC(=O)c3c(Cl)cc(Cl)cc3Cl)N2C1c1ccc(OC)cc1OC (stereo not drawn)
query: Between 1 and 2 , whose measured %inh TOPO II reads higher? State the label of the item chosen.
result: 2
(2: 44%, 1: 20%)

* * *

Test system: A498 renal cell carcinoma cell line
Test: MTT cytotoxicity assay, A498
Conditions: read-out: Cytotoxicity IC50 A498± SD; MTT, A498, 24 h treatment, mean ± SD of two independent assays
property label: pIC50
In textbook form, pIC50 equals minus log to base ten of the concentration in mol/L.

query: Can you look up the measured pIC50 of CCOC(=O)C1=C(C)N=C2SC=C(NC(=O)c3c(Cl)cc(Cl)cc3Cl)N2C1c1ccc(OC)cc1OC (stereo not shown) for me?
result: 8.70
